Values were extracted from ChEMBL document CHEMBL5665443.

Target: Single-strand selective monofunctional uracil DNA glycosylase (Homo sapiens) (UniProt Q53HV7);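 also: enzymatic SMUG1 assay coupled with APE1, reading fluorescence at 594 nm released when a quenched double-stranded DNA oligonucleotide substrate is cleaved and separated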
Sequence (Q53HV7 whole entry): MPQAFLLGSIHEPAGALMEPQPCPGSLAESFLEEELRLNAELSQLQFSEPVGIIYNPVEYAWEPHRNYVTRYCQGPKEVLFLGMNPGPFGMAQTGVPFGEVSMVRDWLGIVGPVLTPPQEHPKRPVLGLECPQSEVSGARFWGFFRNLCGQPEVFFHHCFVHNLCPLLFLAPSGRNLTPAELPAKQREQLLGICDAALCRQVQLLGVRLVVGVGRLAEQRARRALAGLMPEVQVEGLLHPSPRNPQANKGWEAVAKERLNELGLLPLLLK
Settings: Compound Concentration 10.0 uM, Hit No
Description: Inhibition of SMUG1 by quantifying inhibition of SMUG1-mediated cleavage and dissociation of quenched duplex DNA oligonucleotides, measured as fluorescence at 594 nm. To generate a functional strand incision and increase turn-over this assay is coupled to APE1.
Reported inhibition values for the following compounds.
Record the result as number plus unit.

Below, each entry is followed by its recorded inhibition result.
1. CC(=O)N1CCC(c2ccc(C(=O)NC3=NCCN3)cc2C(F)(F)F)CC1	11.2%
2. COc1cc(-c2cn([C@H]3CCc4c(F)cccc4N(CC(F)(F)F)C3=O)nn2)ccc1-n1cnc(C)c1	19.7%
3. CCCCC#Cc1nc(NC)c2ncn([C@@H]3O[C@H](CO)[C@@H](O)[C@H]3O)c2n1	-0.13%
4. CN(C(=O)c1cnn2cccnc12)c1cc2c(cc1N1CCOCC1)C(=O)N(C[C@@H](F)C(C)(C)O)C2	9.25%
5. Oc1cc2c(cc1O)CN(C(=S)NCCc1ccc(Cl)cc1)CCC2	1.46%

Return reported inhibition; argument: `Cc1ccc2c(c1CCC(=O)O)CC[C@@H](NS(=O)(=O)c1ccc(Cl)cc1)C2`
4.86%

Return reported inhibition; argument: `O=C(NCCS(=O)(=O)c1ccc(C(F)(F)F)cn1)c1ccc(Cl)cc1`
13.1%

Return reported inhibition; argument: `c1ccc(C2CCN(c3cnc4c(N5CCOCC5)nccn34)CC2)cc1`
23%

* * *

Biological target: Endonuclease 8-like 1 (Homo sapiens);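 also: fluorescence at 594 nm from quenched duplex DNA oligonucleotides released by NEIL1 cleavage and strand separation, reported as reduction of this enzyme activity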
Details: Compound Concentration 1.0 uM, Hit No
Description: Inhibition of NEIL1 by quantifying inhibition of NEIL1-mediated cleavage and dissociation of quenched duplex DNA oligonucleotides, measured as fluorescence at 594 nm.
value type: inhibition (%)
The reply should be a number in %, with the unit left off.

Below, each entry is followed by its recorded inhibition result.
1) Nc1cnc(N2CCc3cc(S(=O)(=O)Nc4c(F)cc(Cl)cc4F)cc(N4CCCC4=O)c32)nc1	-8.47
2) CN(C)C(=O)Cn1cc(-c2ccc(-c3nnc4ccccn34)cc2)cn1	-1.84
3) CCN1CCN(c2ccc(Nc3cc(N(C)C(=O)Nc4c(Cl)c(OC)cc(OC)c4Cl)ncn3)cc2)CC1	-0.787

Return reported inhibition; argument: `O=C(Nc1ccc(Oc2ccc(F)cc2)cc1)N1CCc2ncccc2[C@H]1c1ccc(F)cc1`
-9.68

Return reported inhibition; argument: `CS(=O)(=O)c1cc(C2(NC(=O)c3cncc4c3cnn4-c3ccc(F)cc3)CC2)ccn1`
-0.745

Return reported inhibition; argument: `CS(=O)(=O)NCC[C@H](NC(=O)c1cncc2c1cnn2-c1ccc(F)cc1)c1ccnc(S(C)(=O)=O)c1`
-4.23

Return reported inhibition; argument: `CN(C)C(=O)Cn1cc(-c2nc([C@@](C)(c3ccc(-c4cnc(N)nc4)cc3)C3CC3)no2)cn1`
-7.71

Return reported inhibition; argument: `CCC(=O)N1CCN(c2ccc(-n3c(=O)ccc4cnc5ccc(-c6cnc7ccccc7c6)cc5c43)cc2C(F)(F)F)CC1`
-7.39

* * *

Reported inhibition values for the following compounds.
Biological target: Adenine DNA glycosylase (Homo sapiens) (UniProt Q9UIF7);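 also: human MUTYH activity read as 594 nm fluorescence from cleavage and release of a quenched DNA duplex, coupled with APE1 for strand incision, lower signal meaning inhibition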
Sequence (whole entry): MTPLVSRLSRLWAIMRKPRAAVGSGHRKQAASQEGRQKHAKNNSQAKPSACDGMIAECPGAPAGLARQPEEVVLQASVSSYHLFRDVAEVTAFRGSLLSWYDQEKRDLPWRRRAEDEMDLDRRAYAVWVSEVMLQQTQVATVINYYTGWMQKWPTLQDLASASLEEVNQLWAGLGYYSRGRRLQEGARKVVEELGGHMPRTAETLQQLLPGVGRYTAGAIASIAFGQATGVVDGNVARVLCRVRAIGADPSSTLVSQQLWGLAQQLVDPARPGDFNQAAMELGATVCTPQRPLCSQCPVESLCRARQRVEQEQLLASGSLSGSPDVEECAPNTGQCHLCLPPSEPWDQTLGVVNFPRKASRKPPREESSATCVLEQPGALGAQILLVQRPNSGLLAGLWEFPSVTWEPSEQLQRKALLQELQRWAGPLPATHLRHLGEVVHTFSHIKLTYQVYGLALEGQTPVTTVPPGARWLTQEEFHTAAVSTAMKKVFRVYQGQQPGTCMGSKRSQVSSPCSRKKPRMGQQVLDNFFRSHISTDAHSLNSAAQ
Conditions: Compound Concentration 10.0 uM, Hit No
Description: Inhibition of MUTYH by quantifying inhibition of MUTYH-mediated cleavage and dissociation of quenched duplex DNA oligonucleotides, measured as fluorescence at 594 nm. To generate a functional strand incision and increase turn-over this assay is coupled to APE1.
Where a SMILES comes first, the peptide text is derived from it. [ ]: non-standard residue; d: D form. Arg(Me) = CNC(=N)NCCC[C@H](N)C(=O)O; d3Pal = N[C@H](Cc1cccnc1)C(=O)O; azaGly = NNC(=O)O
The reply should be a number in %, with the unit left off.

1. COc1cc(OC)c(NC(=O)Nc2cc(C)on2)cc1Cl	-8.2
2. COc1ccc(S(=O)(=O)N2c3ccc(Cl)cc3[C@](O)(c3ccccc3Cl)[C@@H]2C(=O)N2CCC[C@H]2C(N)=O)cc1OC	28.9
3. Cc1cccc(F)c1C(=O)Nc1cnc(-c2cc3c(cc2Cl)OC(F)(F)O3)cn1	6.43
4. COc1cc(Nc2ccc([N+](=O)[O-])cc2C(=O)O)cc2ccccc12	91.9
5. CNC(=O)Nc1ccc(-c2nc(N3CC4CCC(C3)O4)c3cnn(C4CCC5(CC4)OCCO5)c3n2)cc1	5.83
6. CNC(=N)NCCC[C@H](NC(=O)[C@H](CC(C)C)NC(=O)NNC(=O)[C@H](Cc1ccccc1)NC(=O)[C@H](CO)NC(=O)[C@H](CC(N)=O)NC(=O)[C@@H](Cc1cccnc1)NC(=O)[C@H](N)Cc1ccc(O)cc1)C(=O)NCC(N)=O (H-[dY][d3Pal]NSF[azaGly]L[Arg(Me)]G-NH2)	-0.706

Return reported inhibition; argument: CC(C)c1c(CN(C)C(C)Cc2ccccc2)n(C)n(-c2ccccc2)c1=O (centres undefined)
11

Return reported inhibition; argument: `N[C@@]1(C(=O)O)CC[C@H]2[C@H](C(=O)O)[C@H]21`
4.77

Return reported inhibition; argument: `CN(C)CCN(Cc1ccc(-c2ccc(CNCCc3ccccc3)cc2)cc1)C(=O)CCC1CCCC1`
93.4

Return reported inhibition; argument: `CC1(C)CCC(C)(C)c2cc(NC(=O)c3ccc(C(=O)O)cc3)ccc21`
0.879

Return reported inhibition; argument: `C[C@@]1(Cc2ccc(C#N)cc2)C(=O)N(c2cc(Cl)cc(Cl)c2)c2ncc(C(=O)NC3(c4nc(C5CCC5)no4)CC3)n21`
-3.98

Return reported inhibition; argument: `Cc1ccc2nc(NCCN)c3ncc(C)n3c2c1`
83.5

* * *

Target: G/T mismatch-specific thymine DNA glycosylase (Homo sapiens);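 also: human TDG cleavage of quenched duplex DNA oligonucleotides coupled to APE1, strand release read as fluorescence at 594 nm, inhibition of TDG activity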
Details: Compound Concentration 10.0 uM, Hit No
Description: Inhibition of TDG by quantifying inhibition of TDG-mediated cleavage and dissociation of quenched duplex DNA oligonucleotides, measured as fluorescence at 594 nm. To generate a functional strand incision and increase turn-over this assay is coupled to APE1.
Quick rule: inhibition of at least 50% means T, below that means F.

Worked examples, 3 compounds total:
1. O=c1c(Br)ccc2n1C[C@@H]1CNC[C@H]2C1	F
2. CCCn1c(=O)c2nc(C34CC5CC(CC3C5)C4)[nH]c2n(CCC)c1=O	F
3. Cc1ccc(/C(=C\CN2CCCC2)c2ccccn2)cc1	F

Shifting focus to the compound that follows.
Please check the record `C[C@H](c1ccnc(Nc2nc3ccc(-c4cc(N(C)C)ncn4)cc3[nH]2)c1)N1CCN(C(=O)CC(F)(F)F)CC1` and state if its inhibition is at or above 50%.
T

* * *

Target: Uracil-DNA glycosylase (Homo sapiens) (UniProt P13051)
Sequence (P13051 whole entry): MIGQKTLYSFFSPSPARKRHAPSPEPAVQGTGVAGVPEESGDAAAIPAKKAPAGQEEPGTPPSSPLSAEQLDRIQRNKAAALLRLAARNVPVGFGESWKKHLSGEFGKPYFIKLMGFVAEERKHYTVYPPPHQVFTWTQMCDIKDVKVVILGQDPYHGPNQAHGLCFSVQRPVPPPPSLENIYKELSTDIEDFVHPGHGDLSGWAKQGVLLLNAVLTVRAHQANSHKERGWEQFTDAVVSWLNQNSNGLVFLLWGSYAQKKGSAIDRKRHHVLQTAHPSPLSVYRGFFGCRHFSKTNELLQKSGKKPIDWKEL
Settings: Compound Concentration 10.0 uM, Hit No
Description: Inhibition of UNG by quantifying inhibition of UNG-mediated cleavage and dissociation of quenched duplex DNA oligonucleotides, measured as fluorescence at 594 nm. To generate a functional strand incision and increase turn-over this assay is coupled to APE1.
value type: inhibition (%)
The reply should be a number in %, with the unit left off.

1) CC(C)(C)C1CCc2c(sc(NC(=O)c3ccco3)c2C(=O)O)C1 (centres undefined)	-0.0242
2) COc1cc(C(=O)N(CCC2CCCN2C)C/C(C)=C/c2ccccc2F)cc(OC)c1OC (centres undefined)	-3.28
3) N#Cc1ccc(NC(=O)Nc2ccccc2Br)c2nn[nH]c12	-8.36
4) CC(C)c1ccc(CC(=O)N2CCC[C@@H](c3cccc(OC(C)(C)C(=O)O)c3)C2)cc1	3.87
5) O=C(NCc1ccccc1)c1ccc(S(=O)(=O)NCc2ccccc2)cc1	3.04

Find the measured inhibition: item `CN1CCC(C(=O)c2cccc(NC(=O)c3c(F)cc(F)cc3F)n2)CC1` , target or system Uracil-DNA glycosylase (Homo sapiens) (UniProt P13051).
-8.11

Find the measured inhibition: item `COc1nc2ccc([C@@](O)(c3ccc(Cl)cc3)c3cncn3C)cc2c(Cl)c1Cc1ccc(-n2cccn2)cc1` , target or system Uracil-DNA glycosylase (Homo sapiens) (UniProt P13051).
9.26

Find the measured inhibition: item `CCn1c(=O)c(C)cn(Cc2nnc(-c3ccc(F)c(OC)c3F)s2)c1=O` , target or system Uracil-DNA glycosylase (Homo sapiens) (UniProt P13051).
2.54

Find the measured inhibition: item `NS(=O)(=O)c1cc(NC(=O)Cc2ccccc2)ccc1Oc1cccc(Cl)c1` , target or system Uracil-DNA glycosylase (Homo sapiens) (UniProt P13051).
6.44

Find the measured inhibition: item COC(=O)N1CCN(C(=O)Cc2ccc(Cl)c(Cl)c2)C(CN2CCCC2)C1 (centres undefined) , target or system Uracil-DNA glycosylase (Homo sapiens) (UniProt P13051).
-7.49

Find the measured inhibition: item `CN(C)CC#Cc1ccc(OCCCc2sc(N3CCc4cccc(C(=O)Nc5nc6ccccc6s5)c4C3)nc2C(=O)O)c(F)c1` , target or system Uracil-DNA glycosylase (Homo sapiens) (UniProt P13051).
1.14

Find the measured inhibition: item `Clc1cccc(COc2cncc(N3CCNCC3)n2)c1` , target or system Uracil-DNA glycosylase (Homo sapiens) (UniProt P13051).
-8.45

Find the measured inhibition: item `C[C@H]1CN(C[C@H](Cc2ccccc2)C(=O)NCC(=O)O)CC[C@@]1(C)c1cccc(O)c1` , target or system Uracil-DNA glycosylase (Homo sapiens) (UniProt P13051).
-7.63

Find the measured inhibition: item `N=C(N)NCCSC(=N)N` , target or system Uracil-DNA glycosylase (Homo sapiens) (UniProt P13051).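 Also: UNG excision on a quenched double-stranded DNA oligo probe, with APE1 added for strand incision and turnover, read as fluorescence at 594 nm as strands separate.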
-5.32
